Reference for the values: ChEMBL document CHEMBL1146410

Would you mind telling me the reported mortality at 30 ppm of each entry?
Assay method text: Toxicity in Artemia salina larvae at 30 ppm
Format: organism-based
Stated conditions: in vivo, read-out: Activity
Numbers only, in %.

Query: Fill blank: measured mortality at 30 ppm of the compound `CC(=O)OCC1=C2CC/C(C)=C/CC[C@@]3(C)O[C@@H]3CC/C(C)=C/[C@H]2OC1` is ____.
Result: 25

Now turn to the next compound.
Query: Fill blank: measured mortality at 30 ppm of the compound `CC(=O)OCC1=C\CC/C(C)=C/CC[C@@]2(C)CC[C@@](C(C)C)(\C=C\1)O2` is ____.
Result: 20
